Reported Metric: melting point (°C)

Recorded results for 5 compounds are shown here.
In [3]: df
Out[3]:
                              compound  reported_metric  recorded_number
0           OB(O)c1c(F)c(F)c(F)c(F)c1F    melting point              253
1  COC(=O)CC(=O)OC [dimethyl malonate]    melting point              -62
2   CCC(C)N (configuration not stated)    melting point             -104
3    CC(=O)OCc1ccccc1 [benzyl_acetate]    melting point              -51
4     CCCCCCCCCCCCCCCCCCC [Nonadecane]    melting point               33

(I) CCn1cc(C(=O)O)c(=O)c2cc(F)c(N3CCNC(C)C3)c(F)c21 (configuration not stated)
(II) Cc1cc(C)n(CN(CCO)Cn2nc(C)cc2C)n1 [2-{bis[(3,5-dimethyl-1H-pyrazol-1-yl)methyl]amino}ethanol]
*Q* # argmax over melting point for candidates I and II Reply briefly: the label of your chosen item.
*A* I

(a) Oc1ccccc1C=Nc1ccccc1
(b) N=C1c2ccccc2C(=O)N1c1n[nH]c2ncccc12
*Q* # argmax over melting point for candidates a and b Reply briefly: the label of your chosen item.
*A* b
(b: 254 °C, a: 51 °C)

* * *

Reported Metric: melting point (°C)

Recorded results for 4 molecules are shown here.
                                   molecule  value_unit  recorded_number
0    CC(C)(C)OC(=O)N[C@@H](Cc1ccccc1)C(=O)O          °C               87
1  Cc1cccc(C(C)(C)C)c1 [1-methyl-3-tert-butylbenzene]          °C              -41
2         COc1ccccc1/C=C(/C#N)c1nc2ccccc2s1          °C              159
3                                BrCC(Br)Br          °C              -29

(A) CC(=O)N1CCc2cc(Br)ccc21
(B) CC(C)(C)N [2-Methylpropan-2-amine]
(C) C=Cc1ccc(N)cc1
(D) CCCCCCC(=O)O [Heptanoic acid]
*Q* Sort ascending by melting point. In plain terms: list the labels in the order you were asked to.
*A* B, D, C, A

(a) COC(=O)CCC(C)C1CCC2C3CCC4CC(=O)CCC4(C)C3CC(=O)C12C (stereo not given) [methyl 3,12-dioxocholan-24-oate]
(b) CN(C)C=O [N,N-Dimethylformamide]
*Q* # argmax over melting point for candidates a and b Reply briefly: the label of your chosen item.
*A* a

(a) CC(C)(C)OC(=O)N[C@@H](Cc1ccc(Br)cc1)C(=O)O
(b) C/C=C/CC [(2E)-Pent-2-ene]
(c) CC/C(=C(/CC)c1ccc(O)cc1)c1ccc(O)cc1 [4,4'-(3E)-Hex-3-ene-3,4-diyldiphenol]
*Q* Sort ascending by melting point. In plain terms: list the labels in the order you were asked to.
*A* b, a, c
(b: -140 °C, a: 119 °C, c: 170 °C)

* * *

Reported Metric: melting point (°C)

(P) COc1ccc(C(=O)O)cc1OCc1ccccc1
(Q) CCc1cccc(O)c1
*Q* # query: argmin of melting point over P and Q Reply briefly: the label of your chosen item.
*A* Q

Origin of the recorded values: the Bradley open melting point set (2014)
